Entries and their pEC50
- targetOrTestSystem: 5-hydroxytryptamine receptor 1D (Homo sapiens)
- testMethodNotes: Ability to inhibit forskolin-stimulated adenylate cyclase in a cell line expressing human 5-hydroxytryptamine 1D receptor
- Type: functional
pEC50: −log10 of the molar value.
metric: pEC50

compoundStructureString | targetOrTestSystem | metric | testResult
CNCCc1c[nH]c2ccc(C(C)(C)C)cc12 | 5-hydroxytryptamine receptor 1D (Homo sapiens) | pEC50 | 9.66
CNS(=O)(=O)CCc1ccc2[nH]cc(C3CCN(C)CC3)c2c1 | 5-hydroxytryptamine receptor 1D (Homo sapiens) | pEC50 | 8.80

====

- targetOrTestSystem: 5-hydroxytryptamine receptor 1A (Homo sapiens, UniProt P08908)
- Sequence (P08908 whole entry): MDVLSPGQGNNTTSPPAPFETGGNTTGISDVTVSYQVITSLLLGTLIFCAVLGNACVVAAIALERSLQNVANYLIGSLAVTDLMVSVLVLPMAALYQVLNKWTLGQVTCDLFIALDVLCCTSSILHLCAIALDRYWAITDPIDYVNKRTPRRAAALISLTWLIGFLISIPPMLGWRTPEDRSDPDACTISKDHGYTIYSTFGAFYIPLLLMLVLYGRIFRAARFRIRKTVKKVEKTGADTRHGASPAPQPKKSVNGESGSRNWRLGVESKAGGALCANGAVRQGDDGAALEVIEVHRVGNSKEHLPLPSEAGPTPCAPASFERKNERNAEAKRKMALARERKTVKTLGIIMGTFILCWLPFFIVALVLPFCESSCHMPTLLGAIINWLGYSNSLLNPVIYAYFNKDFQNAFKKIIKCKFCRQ
pKi: −log10 of the molar value.

compoundStructureString | pKi
CNCCc1c[nH]c2ccc(C(C)(C)C)cc12 | 8.21

====

- targetOrTestSystem: 5-hydroxytryptamine receptor 1D (Homo sapiens, UniProt P28221)
- Sequence (P28221 whole entry): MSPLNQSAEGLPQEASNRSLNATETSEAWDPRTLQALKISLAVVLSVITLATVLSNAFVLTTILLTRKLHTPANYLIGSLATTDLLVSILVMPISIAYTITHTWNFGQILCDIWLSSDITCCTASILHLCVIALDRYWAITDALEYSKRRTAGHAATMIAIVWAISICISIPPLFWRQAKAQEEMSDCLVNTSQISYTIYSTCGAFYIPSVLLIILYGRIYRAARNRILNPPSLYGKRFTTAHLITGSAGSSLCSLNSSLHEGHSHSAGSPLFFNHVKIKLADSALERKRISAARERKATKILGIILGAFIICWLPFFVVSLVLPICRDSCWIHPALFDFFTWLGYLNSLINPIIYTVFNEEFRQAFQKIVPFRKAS
pKi: −log10 of the molar value.
Label 1 (yes) when pKi is at or above 9; otherwise label 0 (no).

compoundStructureString | class
CCc1ccc2[nH]cc(CCN)c2c1 | 0 (no)
CN(C)CCc1c[nH]c2ccc(C(C)(C)C)cc12 | 1 (yes)
CCCNCCc1c[nH]c2ccc(C(C)(C)C)cc12 | 0 (no)
CNCCc1c[nH]c2ccc(C(C)(C)C)cc12 | 1 (yes)
NCCc1c[nH]c2ccc(C3CCCCC3)cc12 | 0 (no)
CCCN(CCC)CCc1c[nH]c2ccc(C(C)(C)C)cc12 | 0 (no)
Cc1ccc2[nH]cc(CCN)c2c1 | 0 (no)

====

- targetOrTestSystem: 5-hydroxytryptamine receptor 1D (Homo sapiens)
- testMethodNotes: Intrinsic activity for 5-hydroxytryptamine 1D receptor
- Assay type: functional

compoundStructureString | Emax [%]
CNCCc1c[nH]c2ccc(C(C)(C)C)cc12 | 100
CNS(=O)(=O)Cc1ccc2[nH]cc(CCN(C)C)c2c1 | 93
CN(C)CCc1c[nH]c2ccc(Cn3cncn3)cc12 | 97
CNS(=O)(=O)CCc1ccc2[nH]cc(C3CCN(C)CC3)c2c1 | 100

====

pKi: −log10 of the molar value.
5-hydroxytryptamine receptor 1D (Homo sapiens, UniProt P28221): recorded pKi for assorted compounds

compoundStructureString | targetOrTestSystem | pKi
NCCc1c[nH]c2ccc(C3CCCC3)cc12 | 5-hydroxytryptamine receptor 1D (Homo sapiens, UniProt P28221) | 8.77
CC(C)(C)c1ccc2[nH]cc(CCN)c2c1 | 5-hydroxytryptamine receptor 1D (Homo sapiens, UniProt P28221) | 9.22
CC(C)c1ccc2[nH]cc(CCN)c2c1 | 5-hydroxytryptamine receptor 1D (Homo sapiens, UniProt P28221) | 8.96
